Entry source: PubChem BioAssay (NCI)

- System: LOX IMVI melanoma
- experimental protocol: NCI tumour cell line growth inhibition, 48 h
experimental endpoint: TGI (µM)
Give bare numbers, in µM.

Sample records with TGI:
- molecule: "CCN(CC)CCOc1ccc2c(c1)C(=O)c1cc(OCCN(CC)CC)ccc1-2"
  TGI, µM: 16.7
- molecule: "CC(CN1CCN(CC(C)Nc2ccnc3cc(Cl)ccc23)CC1)Nc1ccnc2cc(Cl)ccc12 (stereo not drawn)"
  TGI, µM: 8.19
- molecule: "O=C(Nc1ccc(Cl)cc1)c1cc(S(=O)(=O)Nc2nnc(-c3ccccc3)c(-c3ccccc3)n2)c(SCc2ccccc2)cc1Cl"
  TGI, µM: 35.1
- molecule: "COC1CC(CC2CCC(C)C(C(C)C(=O)O)O2)OC2(OC(C)(C3CCC(C)(C4OC(C5OC(O)(CO)C(C)CC5C)CC4C)O3)CC2C)C1C (stereo not drawn)"
  TGI, µM: 9.81
- molecule: "COc1cc2c(cc1C)NC(=O)/C2=C/c1c(Cl)n(-c2ccccc2)c2ccccc12"
  TGI, µM: 27.8

Please look at the following molecule next.
// TGI lookup, key: C=CCC(N[C@H](CO)c1ccccc1)c1cn(S(=O)(=O)c2ccc(C)cc2)c2ccccc12 (stereo partly drawn)
27

---

For each of the molecules below, state its TGI.
- Test system: HCT-116 colon
- experimental protocol: NCI tumour cell line growth inhibition, 48 h

- molecule: "O=c1c2ccccc2nc(-c2ccccc2)n1O"
  experimental endpoint: "TGI"
  result: "> 100 µM"
- molecule: "C/C1=C\\C/C=C(\\C)[C@H]2CC(CC/C(C)=C/CC1)[C@](C)(C=O)O2"
  experimental endpoint: "TGI"
  result: "> 100 µM"
- molecule: "Cc1ccc(C2C3=C(N=c4s/c(=C/c5ccc(Br)cc5)c(=O)n42)c2ccc4ccccc4c2OCC3)cc1 (stereo unspecified)"
  experimental endpoint: "TGI"
  result: "> 100 µM"

Each molecule below has a reported value. Please supply its TGI.
1. COc1cc2c(cc1C)NC(=O)/C2=C/c1c(Cl)n(-c2ccccc2)c2ccccc12
2. C#Cc1cccc(Oc2ccc(NC(=O)CCl)cc2)c1
3. Cc1cc(C)c2c(SCc3ccc(Cl)cc3Cl)nc(N)nc2n1

1. 61.1 µM
2. > 82.5 µM
3. > 100 µM

---

- Test system: OVCAR-4 ovarian
- experimental protocol: NCI tumour cell line growth inhibition, 48 h
For each record, write down the corresponding TGI.

Take a look at these entries with their results.
- compound: "O=C1CCCCC(=O)Nc2ccccc2N1"
  TGI: "> 100 µM"
- compound: "COc1ccc(CC(NC(=O)[C@H](C)NC(=O)CN2CCOCC2)C(=O)N[C@@H](Cc2ccccc2)C(=O)[C@@]2(C)CO2)cc1 (stereo not given in full)"
  TGI: "0.856 µM"
- compound: "C1=C(c2ccccc2)C(c2ccc(OCCN3CCCCC3)cc2)Oc2ccccc21 (stereo not given)"
  TGI: "7.09 µM"
- compound: "COC(OC)C1OC(CO)C(n2cc(F)c(=O)[nH]c2=O)C1O (stereo not given)"
  TGI: "> 100 µM"
- compound: "CCC1(N=[N+]=[N-])C(=O)c2ccccc2N(c2ccccc2)C1=O (stereo not given)"
  TGI: "> 100 µM"

Give one value of TGI per listed compound.
1. O[C@H]1[C@H]2[C@H](O)C[C@H](CCOCc3ccccc3)CN2C[C@H]1O
2. COc1cc(C)c(C)c(OC(=O)c2c(C)c(C)c(OC)c(C)c2OC)c1C
3. Cc1ccc(CC(Cc2ccc(C)cc2C(=O)O)C(=O)O)cc1 (stereo not given)

1: > 100 µM; 2: > 100 µM; 3: > 100 µM

Provide reported TGI for each item, in the same order as listed.
1. COc1ccc2c(c1)CC[C@@H]1C2CC[C@]2(C)C(=O)N(N)C(=O)CC12 (stereo not given in full)
2. COC(=O)CCc1cccnc1/C=N/O

["> 100 µM", "> 100 µM"]

---

- Tested on: CAKI-1 renal
- experimental protocol: NCI tumour cell line growth inhibition, 48 h; in the data active means GI50 below about 0.43 µM; inactive means the rest
Hi! Could you answer with just one of these? true (1) (active), false (0) (inactive)

Reference set, count: 3
- compound: "Cc1cc(C)cc(Nc2ccc([N+](=O)[O-])c(NCCN3CCOCC3)n2)c1"
  target or system: "CAKI-1 renal"
  label class: "true (1)"
- compound: "O=C(O)c1cc(Cc2ccc(O)c(C(=O)O)c2)ccc1O (tested in a mixture with another compound)"
  target or system: "CAKI-1 renal"
  label class: "false (0)"
- compound: "[C-]#[N+][C@]12C(=O)[C@H](CCC1(C)C)C(C)(C)[C@H]1C(=O)N(C)c3cccc2c31"
  target or system: "CAKI-1 renal"
  label class: "false (0)"

Dear colleague, could you share the recorded outcome for O=C(NNS(=O)(=O)c1ccc(F)cc1)c1cccnc1Nc1ccc(Cl)cc1Cl when you have a moment?
false (0)

# outcome recorded in this test, key = COc1ccc(CC(NC(=O)[C@H](C)NC(=O)CN2CCOCC2)C(=O)N[C@@H](Cc2ccccc2)C(=O)[C@@]2(C)CO2)cc1 (some centres not stated)
false (0)

Hi, sorry to bother you, what did the test record for COc1ccc(C(=O)COc2cccc(/C=C3\CSc4ccc(Cl)cc4C3=O)c2)cc1 ?
false (0)

Hi team, can someone confirm the assay call for Nc1ccc2ccc(NS(=O)(=O)N3CCCCC3)cc2c1 ?
false (0)

Which result was noted for this compound in the test: C1=C(c2ccccc2)C(c2ccc(OCCN3CCCCC3)cc2)Oc2ccccc21 (configuration not stated)
false (0)

Please share the test call associated with COc1cc(NCc2ccccc2O)c2ncccc2c1 .
false (0)

Recorded test outcome, item CCCCCCC#CC#Cc1cccc(=O)o1
false (0)

Could you please tell me the result logged for CC1SC(c2c(Cl)cccc2Cl)N(NC(=O)C(O)c2ccccc2)C1=O (configuration not stated) in this assay?
false (0)

---

- Tested on: MALME-3M melanoma
- experimental protocol: NCI tumour cell line growth inhibition, 48 h
Where a SMILES comes first, the peptide text is derived from it.
experimental endpoint: TGI

Examples from the recorded data:
- molecule: "CCOC(=O)/C(C[C@H]1OC(C)(C)O[C@@H]1[C@H]1COC(C)(C)O1)=N/O"
  result: "> 100 µM"
- molecule: "C#Cc1cccc(Oc2ccc(NC(=O)CCl)cc2)c1"
  result: "> 82.5 µM"
- molecule: "CC1C=C[C@H](Sc2ccccc2)CC[C@@]1(C)O (stereo partly drawn)"
  result: "> 100 µM"
- molecule: "CCCCNC(=O)CCN(C(=O)O)S(=O)(=O)c1ccc(NC(=O)c2ccccc2)cc1"
  result: "> 100 µM"
- molecule: "O=[N+]([O-])c1ccc(/C=C(/c2ccc([N+](=O)[O-])o2)S(=O)(=O)c2ccccc2)o1"
  result: "7.45 µM"
- molecule: "CCC(C)C(NC(=O)C1CCCN1C(=O)C(CC(C)C)NC(=O)C(CC(C)C)NC(=O)C(N)CC(C)C)C(=O)NC(C(=O)NCC(=O)NC(CC(N)=O)C(=O)NC(CC(C)C)C(=O)NC(CC(C)C)C(=O)NC(CC(C)C)C(N)=O)C(C)C (stereo not drawn) (H-LLLPIVGNLLL-NH2; configuration not given here)"
  result: "> 50 µM"
- molecule: "Cc1cccc(C)c1NC(=O)CCC(=O)NC(N)=S"
  result: "> 100 µM"

Could you now look at the following molecule, please?
Requested read-out: TGI. Entry: CC(C)(CC#N)c1cc(CC(C)(C)c2cc(CC(C)(C)c3cc(C(C)(C)C4(C)OCCO4)no3)no2)no1
> 100 µM

---

So I've got a bunch of compounds here, and I need their TGI values.
- Test system: SNB-75 CNS
- experimental protocol: NCI tumour cell line growth inhibition, 48 h
Answers are plain numbers, in µM.

- compound: "CC(=O)c1ccc2c(c1)N(CCCN1CCN(CCO)CC1)c1ccccc1C2"
  TGI (µM): 30.5
- compound: "O=S(=O)(NCCNc1cc(-c2cn(-c3ccccc3)nc2-c2cccc(O)c2)ccn1)c1ccc(Cl)cc1"
  TGI (µM): 20.4
- compound: "COc1ccc(C(=O)COc2cccc(/C=C3\\CSc4ccc(Cl)cc4C3=O)c2)cc1"
  TGI (µM): 37.2

Hi team, please reply with TGI for each item in this list.
1. COc1cc2cc(Oc3ccc(NC(=O)Nc4ccc(Cl)c(C(F)(F)F)c4)cc3)c(C)nc2cc1OC
2. CCCCCCNc1nc(N2CCOCC2)c2[nH]c(NCCCCCC)nc2n1
3. C(=C\c1nccc2c1[nH]c1ccccc12)/c1ccccc1

1: 4.9; 2: 2.77; 3: 21.9

Dear colleague, could you please provide TGI for the compounds listed below?
1. CCCCCCCCCCCCCC(=O)C(C)N (centres undefined)
2. COc1cccc(NC(=O)CC(=O)N2N=C(C)C(N=Nc3ccc(S(=O)(=O)CCOS(=O)(=O)O)cc3)C2=O)c1 (centres undefined)
3. C=C1CC2(CCCC3(CC(=C)C(=O)O3)C2(C)C)OC1=O (centres undefined)

[20.7, 15.5, 34.4]
